Assay: NCI Yeast Anticancer Drug Screen. Data for the bub3 strain (AID 167)
Details: S. cerevisiae bub3 mutant strain, at 5.0 µM (retest, dose inferred, filed as 0.5), stronger effect = higher value
This is part of a sample that, as a whole, favours compounds with a hit. Of some 79,000 tested, about 15% had one in any assay. Calls of active or inactive are those of the source. Cut-off read from the data, not from the text of the source: active = growth inhibition above about 70%; inactive = the rest.
Entries annotated with measured growth inhibition

Worked examples follow.
[in] Give its growth inhibition value. Item: CN=C(N)NN=C(c1ccc(Cl)cc1)c1ccc(Cl)cc1
[out] 52% (inactive)

[in] // same read-out, input: N#Cc1c(N)nc2c(N=Nc3ccccc3)c(N)nn2c1Nc1ccccc1
[out] -5% (inactive)

[in] Entry to check: O=[N+]([O-])c1ccc2nc(-c3ccc(Cl)cc3)[nH]c2c1
[out] 1% (inactive)

[in] Follow-up entry: C/C=C/C/S(=N\S(=O)(=O)c1ccc(C)cc1)c1ccccc1 (stereo not given)
[out] -7% (inactive)

[in] Subsequent entry: O=C1C=C(c2ccccc2)S(=O)(=O)c2c(O)cccc21
[out] 71% (active)

Further cases:
[in] # get_value(readout='growth inhibition', item= O=c1[nH]cc(F)c(=O)n1C1CCCCO1 (stereo not given) )
[out] 42% (inactive)

[in] Request: N#CS/C(C(Cl)=C(Cl)Cl)=C(/Cl)[N+](=O)[O-]
[out] 99% (active)

---

Test: NCI Yeast Anticancer Drug Screen. Data for the bub3 strain (AID 167)
Details: S. cerevisiae bub3 mutant strain, at 5.0 µM (retest, dose inferred, filed as 0.5), stronger effect = higher value
Compounds without any hit were thinned out: in the full panel of roughly 79,000, 15% have a hit.
Value Type: growth inhibition (%)
Expressed in %, but write only the number.

[in] Recorded growth inhibition of O=C1OCCCN1/N=C/c1ccc([N+](=O)[O-])o1 , please.
[out] 8

[in] One more compound: COC(=O)Oc1nn(C(=O)OC)c(=O)c2ccccc12
[out] 5

[in] Again, but for CC1OC(c2ccc3c(c2)OCO3)OC1C (configuration not stated)
[out] -8

More entries:
[in] Look up growth inhibition: CNCCN[C@@H]1c2cc3c(cc2[C@@H](c2cc(OC)c(O)c(OC)c2)[C@H]2C(=O)OC[C@@H]21)OCO3
[out] -3

---

Test: NCI Yeast Anticancer Drug Screen. Data for the bub3 strain (AID 167)
Conditions: S. cerevisiae bub3 mutant strain, at 50.0 µM, stronger effect = higher value
The panel holds about 79,000 compounds, 15% with a hit somewhere; the sample as a whole holds those more often.
Give class 1 when the value for growth inhibition is at least 70%. Give class 0 when it is less.

Example entries begin here.
[in] Given the entry COc1ccc(/C=C2\C(=O)N(C)C(=O)c3cc(OC)c(OC)cc32)cc1OC , answer whether its growth inhibition meets or surpasses 70%.
[out] class 0

[in] Repeat for the following compound: CCOC(=O)c1[nH]cnc1/N=N/c1nc(O)c(C#N)[nH]1
[out] class 0

***
[in] # bool: growth inhibition of CCc1cc2c(cc1O)CC[C@@H]1[C@@H]2CC[C@]2(C)[C@@H](O)CC[C@@H]12 >= 70%
[out] class 0

[in] What about CCOC(=O)C(=C=Cc1cccs1)C(=O)c1ccccc1 ?
[out] class 1

[in] Now the same for CCCC(CC)c1cc(O)c(O)cc1C(CC)CCC (configuration not stated)
[out] class 0

---

Experiment: NCI Yeast Anticancer Drug Screen. Data for the rad50 strain (AID 155);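 note: 0% = growth of vehicle-only cultures of the same strain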
Conditions: S. cerevisiae rad50 strain growth inhibition; at 50.0 µM
The panel holds about 79,000 compounds, 15% with a hit somewhere; the sample as a whole holds those more often. The source made the active and inactive calls. No stated cut-off is given here; in the data, active means growth inhibition above about 70%; inactive means the rest.
Use one of these outcomes when replying: active, inactive

Examples with answers:
[in] Each compound tested received a call. Report the one for C=C1C(=O)O[C@@H]2C[C@@]3(C)CCC[C@H](C)C3=C[C@H]12 .
[out] inactive

[in] # iterate: CCOc1c(N=Nc2ccc(OC)cc2)c(-c2ccccc2)nn1C(N)=S
[out] inactive

[in] Next compound: CCCCCCCCCCCCCCCC[N+](C)(C)CCCCCC(=O)OC
[out] active

More entries:
[in] Please indicate how the test categorized COC(=O)C12OCC34C(CC5C(C)C6=CC(=O)OC6=CC5(C)C3C(O)C1O)OC(=O)C(OC(C)=O)C24 (stereo not given) .
[out] active

[in] Okay, and C[n+]1c2ccc(Cl)cc2nc2cc(-c3ccccc3)ccc21 ?
[out] active

---

Assay: NCI Yeast Anticancer Drug Screen. Data for the sgs1 mgt1 strain (AID 161);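 note: 0% = growth of cultures given vehicle only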
Conditions: S. cerevisiae sgs1 mgt1 strain, at 50.0 µM (retest, dose inferred, filed as 5.0), stronger effect = higher value
Compounds without any hit were thinned out: in the full panel of roughly 79,000, 15% have a hit.
Value Type: growth inhibition (%)
Unit % implied. Number only.

[in] Item COC1/C=C\C=C(/C)C(=O)NC2=CC(=O)C(N)=C(CC(C)CC(OC)C(O)C(C)C=C(C)C1OC(N)=O)C2=O (centres undefined) has what recorded growth inhibition?
[out] 92

[in] Entry O=C(CC1Sc2ccccc2NC1=O)Nc1ccc([N+](=O)[O-])cc1[N+](=O)[O-] (centres undefined) please
[out] 98

More entries:
[in] I would be grateful if you could share the reported growth inhibition for CN(C)/N=N/c1nc(Cc2ccccc2)[nH]c1C(N)=O .
[out] 99

[in] Follow-up entry: CCN(CC)CCCC(C)Nc1cc(F)cc2cccnc12 (centres undefined)
[out] 75

[in] Proceed to O=c1c2c3ccccc3[nH]c2c2cccc3c2n1CCC3
[out] 89

[in] Now consider CCCNC(=O)c1ccccc1 and answer again.
[out] -5

[in] Same read-out for O=C(O)/C(Cl)=C(/Cl)C(=O)Nc1cccc(Cl)c1 ?
[out] 100

[in] Try this compound too: CN(C)N=Nc1c(-c2ccccc2)n[nH]c1-c1ccccc1
[out] 100

---

Listed next: entries and their corresponding growth inhibition.
Test: NCI Yeast Anticancer Drug Screen. Data for the cln2 rad14 strain (AID 165);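 note: 0% = growth equal to vehicle treated cultures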
Conditions: S. cerevisiae cln2 rad14 strain, at 5.0 µM (retest, dose inferred, filed as 0.5), stronger effect = higher value
This is part of a sample that, as a whole, favours compounds with a hit. Of some 79,000 tested, about 15% had one in any assay.
Write down the numeric answer in % and omit the unit.

[in] What value of growth inhibition has been recorded for this entry: CC(=N/NC(=S)NCC(C)C)/C(C)=N\Nc1ccc(Cl)cc1
[out] -4

[in] Follow-up entry: c1cc[c]([Sn]([O]c2cccc3cccnc23)([c]2ccccc2)[c]2ccccc2)cc1
[out] 99

Others:
[in] Given C/C(=N\NC(=S)Nc1ccc(C(=O)O)cc1C)c1ccc2ccccc2n1 , state its recorded growth inhibition.
[out] 11

[in] Subsequent entry: O=C(O)c1ccc(NC(c2ccccc2)c2ccc3cccnc3c2O)cc1 (stereo not given)
[out] -40

[in] Would you kindly repeat that for O=C(N/N=C/c1cc(Br)ccc1O)c1ccccc1 ?
[out] 21

[in] Input O=C(O)CC/C(=N\Nc1ccccc1)C(=O)O
[out] 6

[in] Next: O=C1/C(=C/c2ccc3c(c2)OCO3)Sc2scc(-c3ccc(O)c(O)c3)[n+]21
[out] 26

[in] Next record, please: O=[N+]([O-])c1cc(Cl)cc(C(c2cc(Cl)cc([N+](=O)[O-])c2O)C(Cl)(Cl)Cl)c1O
[out] 36

[in] Repeat with CC1=C2CCC3C(CCC4(C)C(C(C)CCCC(C)C)CCC34)C2(C)CCC1=O (stereo not given)
[out] 6

[in] How about O=[N+]([O-])c1ccc(CCCCc2ccc([N+](=O)[O-])cc2)cc1 ?
[out] -2

---

Assay: NCI Yeast Anticancer Drug Screen. Data for the mlh1 rad18 strain (AID 175)
Conditions: S. cerevisiae mlh1 rad18 strain growth inhibition; at 50.0 µM; stronger effect = higher value
Compounds without any hit were thinned out: in the full panel of roughly 79,000, 15% have a hit.
Rule: growth inhibition under 60% gives False, otherwise True.

[in] For this compound, is measured growth inhibition 60% or higher? BrC1(c2ccccc2)C[n+]2c(-c3ccccc3)cc(-c3ccccc3)cc2-c2ccccc21 (stereo unspecified)
[out] True

[in] Item: c1cc[c]([Ge]([O]c2cccc3cccnc23)([c]2ccccc2)[c]2ccccc2)cc1
[out] True

[in] Cool, now CCOC(=O)C(Cc1cn(S(=O)(=O)c2ccccc2)c2ccccc12)(NC(C)=O)C(=O)OCC
[out] True

[in] Field entry: C/C(=N/NC(N)=O)C1CC(CCC2([N+](=O)[O-])CCC(C)(O)C(/C(C)=N\NC(N)=O)C2)([N+](=O)[O-])CCC1(C)O (stereo unspecified)
[out] False

---
[in] Please indicate if the recorded growth inhibition for Cc1c(C)c(C)c(C(=O)c2ccccc2C(=O)NCCSC(C)(C)C)c(C)c1C meets or exceeds 60%.
[out] True

[in] Item: COC1/C=C\C=C(/C)C(=O)NC2=CC(=O)C(N)=C(CC(C)CC(OC)C(O)C(C)C=C(C)C1OC(N)=O)C2=O (stereo unspecified)
[out] True

[in] Moving on to the next compound: CCCCC(/C=N\NC(=O)c1ccc[n+](C)c1)=C/c1ccccc1
[out] True

[in] Repeat with CC(=O)NC1=C(Cl)C(=O)c2ccccc2C1=O
[out] True

[in] Now the same for CCC(C)NCCNc1cc(OC)cc2cccnc12 (stereo unspecified)
[out] False

[in] Entry CCCCCCCCCCCCCCCCCCOP(=O)([O-])OCC[N+](C)(C)C please
[out] True

[in] Quick one: C=C(Br)CN(C)CC(=C)Br
[out] True

[in] // same read-out, input: COc1ccc(COCCOCc2nc(C#N)c(N)o2)cc1
[out] False

[in] Can you handle CCCCc1c(O)c(N=NC(=O)C[n+]2ccccc2)c2ccccc2c1O next?
[out] False

[in] Another compound to check: CN1CCS(=O)(=O)C1=O
[out] True

[in] And for C=CCNC(=S)N/N=C(/c1ccccn1)C(C)C ?
[out] True

[in] What do we get for O=[N+]([O-])c1ccc(Cl)c(C(Nc2nncs2)Nc2nncs2)c1 ?
[out] False

[in] And then C=C1C(=O)OC2C1CCC(=C)C1CC(O)C(=C)C12 (stereo unspecified) , what is it?
[out] False

[in] Please answer likewise for CC(/C=C/C(O)=C1/C(=O)CNC1=O)=C\[C@@H](C)[C@H]1O[C@@]2(C)O[C@H](C(=O)[C@@H]3O[C@@]32C)[C@@H]1C
[out] True

[in] Next compound: FC(F)(F)c1cc(NC(=S)SC2CCCCC2)ccc1Cl
[out] True
